Provenance of the data: patent US20120094909A1

# test_target: human PCSK9 (proprotein convertase subtilisin kexin type 9) (human, UniProt Q8NBP7 31-692)
# Sequence (Q8NBP7 31-692 limits assumed): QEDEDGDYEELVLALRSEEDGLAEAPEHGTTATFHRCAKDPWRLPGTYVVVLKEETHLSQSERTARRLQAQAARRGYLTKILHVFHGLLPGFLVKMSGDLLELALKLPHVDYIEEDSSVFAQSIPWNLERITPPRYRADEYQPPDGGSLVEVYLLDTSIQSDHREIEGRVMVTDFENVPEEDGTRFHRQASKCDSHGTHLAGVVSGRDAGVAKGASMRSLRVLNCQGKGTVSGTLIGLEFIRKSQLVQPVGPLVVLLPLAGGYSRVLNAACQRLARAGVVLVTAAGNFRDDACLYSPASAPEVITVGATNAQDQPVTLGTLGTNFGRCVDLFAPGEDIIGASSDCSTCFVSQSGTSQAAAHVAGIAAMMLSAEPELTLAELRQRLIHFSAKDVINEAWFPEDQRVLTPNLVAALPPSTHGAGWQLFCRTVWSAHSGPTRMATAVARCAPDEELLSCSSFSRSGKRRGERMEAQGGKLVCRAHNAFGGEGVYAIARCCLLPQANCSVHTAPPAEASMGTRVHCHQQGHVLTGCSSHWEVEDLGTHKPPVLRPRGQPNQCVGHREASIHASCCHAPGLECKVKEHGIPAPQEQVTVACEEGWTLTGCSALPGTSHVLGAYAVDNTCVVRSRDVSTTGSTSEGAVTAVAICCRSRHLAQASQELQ
# test_protocol: cell-based or functional assay
property_measured: LDLR Depletion (% inhibition at 75 nM) (%)

| binder | property_measured | number |
| --- | --- | --- |
| 2451B05 (designed binder) MGVSDVPRDLEVVAATPTSLLISWDAPAGGYGYYRITYGETGGNSPVQEFTVPSSKGTATISGLKPGVDYTITVYAVEFDYPGSGYYHRPISINYRTEIDKPSQHHHHHH | LDLR Depletion (% inhibition at 75 nM) | 91.7 |
| 2451D05 (designed binder) MGVSDVPRDLEVVAATPTSLLISWDAPAGAYGYYRITYGETGGNSPVQEFTVPVSKGTATISGLKPGVDYTITVYAVEFDFPGSGYYHRPISINYRTEIDKPSQHHHHHH | LDLR Depletion (% inhibition at 75 nM) | 115 |
| 2381B02 (designed binder) MGVSDVPRDLEVVAATPTSLLISWEPFSRLPGGGEYYRITYGETGGNSPLQQFTVPGSKGTATISGLKPGVDYTITVYAVEYPYDYSGYYHRPISINYRTEIDKPSQHHHHHH | LDLR Depletion (% inhibition at 75 nM) | 125 |
| 2451C11 (designed binder) MGIVDVPRDLEVVAATPTSLLISWDPPAGAYGYYRITYGETGGNSPKQQFTVPGYKGTATISGLKPGVDYTITVYAVEYPYDHSGYYHRPISINYRTEIDKPSQHHHHHH | LDLR Depletion (% inhibition at 75 nM) | 70.3 |
